Every entry's value here was drawn from patent US20070189970A1.

- study_system: active GPIIb/IIIa (Homo sapiens, UniProt P05106+P08514)
- Construct: Platelet rich plasma (PRP) containing 3×10^8 platelets/ml was prepared from human blood; endogenous in cells
- Sequence (P08514 32-887 limits assumed): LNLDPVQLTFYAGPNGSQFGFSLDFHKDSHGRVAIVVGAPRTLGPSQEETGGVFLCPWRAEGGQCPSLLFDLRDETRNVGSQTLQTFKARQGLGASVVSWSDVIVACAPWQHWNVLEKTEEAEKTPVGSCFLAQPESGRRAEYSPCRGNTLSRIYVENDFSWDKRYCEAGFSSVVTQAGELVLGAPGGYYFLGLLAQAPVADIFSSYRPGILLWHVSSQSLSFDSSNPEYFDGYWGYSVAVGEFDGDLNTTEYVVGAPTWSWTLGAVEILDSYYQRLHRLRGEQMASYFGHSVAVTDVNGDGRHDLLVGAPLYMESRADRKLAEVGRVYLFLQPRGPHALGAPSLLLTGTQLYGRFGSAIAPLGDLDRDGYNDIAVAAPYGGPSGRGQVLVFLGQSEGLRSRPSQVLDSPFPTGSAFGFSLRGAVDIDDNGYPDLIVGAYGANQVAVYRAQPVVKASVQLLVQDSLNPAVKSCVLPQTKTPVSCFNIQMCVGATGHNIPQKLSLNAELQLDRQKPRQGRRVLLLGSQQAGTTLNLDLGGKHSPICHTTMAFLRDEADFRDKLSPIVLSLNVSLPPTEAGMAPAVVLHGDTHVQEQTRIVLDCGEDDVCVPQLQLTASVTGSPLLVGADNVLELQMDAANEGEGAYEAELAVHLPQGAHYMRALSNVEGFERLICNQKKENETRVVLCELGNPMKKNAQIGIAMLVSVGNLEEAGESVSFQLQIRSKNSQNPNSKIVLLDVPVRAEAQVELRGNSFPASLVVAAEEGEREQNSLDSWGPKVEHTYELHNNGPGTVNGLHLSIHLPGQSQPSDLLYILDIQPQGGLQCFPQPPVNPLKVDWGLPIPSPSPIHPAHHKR
- Sequence (P08514 891-1039 partner limits assumed): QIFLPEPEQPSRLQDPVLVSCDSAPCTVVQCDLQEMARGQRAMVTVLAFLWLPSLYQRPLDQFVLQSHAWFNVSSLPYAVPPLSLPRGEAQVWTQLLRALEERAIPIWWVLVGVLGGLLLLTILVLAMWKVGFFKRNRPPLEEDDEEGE
- Sequence (P05106 27-788): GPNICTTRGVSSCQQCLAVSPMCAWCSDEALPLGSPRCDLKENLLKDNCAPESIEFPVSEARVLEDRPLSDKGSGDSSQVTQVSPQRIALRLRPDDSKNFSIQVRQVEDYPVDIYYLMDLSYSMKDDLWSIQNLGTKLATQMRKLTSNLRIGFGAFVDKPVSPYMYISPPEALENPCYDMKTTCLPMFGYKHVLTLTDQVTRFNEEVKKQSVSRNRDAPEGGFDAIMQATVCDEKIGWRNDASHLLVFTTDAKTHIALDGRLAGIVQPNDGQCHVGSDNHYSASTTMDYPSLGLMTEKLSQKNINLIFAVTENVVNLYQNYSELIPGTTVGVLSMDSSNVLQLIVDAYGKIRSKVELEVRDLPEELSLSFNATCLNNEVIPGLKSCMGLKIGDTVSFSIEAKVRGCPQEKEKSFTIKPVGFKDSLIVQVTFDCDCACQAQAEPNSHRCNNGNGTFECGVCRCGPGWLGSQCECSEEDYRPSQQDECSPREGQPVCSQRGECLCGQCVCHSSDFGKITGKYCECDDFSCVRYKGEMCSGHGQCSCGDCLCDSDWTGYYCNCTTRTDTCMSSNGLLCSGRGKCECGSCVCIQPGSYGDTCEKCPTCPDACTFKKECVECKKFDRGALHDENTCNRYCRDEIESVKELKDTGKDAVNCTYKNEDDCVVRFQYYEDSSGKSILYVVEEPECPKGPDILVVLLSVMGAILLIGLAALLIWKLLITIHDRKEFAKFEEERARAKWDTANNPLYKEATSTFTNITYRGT
- procedure_text: Test 1: inhibitory activity of adenosine diphosphate (ADP)-induced platelet aggregation in platelet rich plasma
- Format: cell-based
- condition_label: IC50 (R) of Test 2 / IC50 (A) of Test 1; selective binding ability toward the active GPIIb/IIIa
property_name: R/A ratio

Record excerpt, results attached:
# compound, study_system, R/A ratio
rows = [
    ("N[C@@H](CNC(=O)[C@@H]1CCCN(C(=O)CCC2CCNCC2)C1)C(=O)O", "active GPIIb/IIIa (Homo sapiens, UniProt P05106+P08514)", 9.2),
    ("CC(=O)N[C@@H](CNC(=O)[C@H]1CCCN(C(=O)CCC2CCNCC2)C1)C(=O)O", "active GPIIb/IIIa (Homo sapiens, UniProt P05106+P08514)", 6.5),
    ("CC(C)CC(=O)Nc1cccc(C(=O)N[C@@H](CNC(=O)[C@H]2CCCN(C(=O)CCC3CCNCC3)C2)C(=O)O)c1", "active GPIIb/IIIa (Homo sapiens, UniProt P05106+P08514)", 8.0),
    ("CCCCCCC(=O)N[C@H](CNC(=O)[C@@H]1CCCN(C(=O)CCC2CCNCC2)C1)C(=O)O", "active GPIIb/IIIa (Homo sapiens, UniProt P05106+P08514)", 6.1),
    ("CC(NCOc1ccc(C(=N)N)cc1)C(=O)N[C@@H](CC(=O)O)C(=O)N[C@@H](C(=O)N1CCS(=O)(=O)CC1)C(C)C (stereo partly shown)", "active GPIIb/IIIa (Homo sapiens, UniProt P05106+P08514)", 18),
]

P: CC(C)[C@H](NC(=O)[C@H](CC(=O)O)NC(=O)CCCOc1ccc(C(=N)N)cc1)C(=O)O [Reference Ex. 4, FK633, reference compound]
Q: N=C(N)c1ccc(OCC(=O)Nc2ccc(OCC(=O)O)c(C(=O)O)c2)cc1
Task: Which numeric R/A ratio is bigger, that of P or that of Q ? Mark your answer with the label of the selected entry.
Result: P
